target: T1, PD-L1-hFc (human, UniProt Q9NZQ7 19-238); test: kinetics on PD-L1-hFc (legend paragraph 40; text names ProteOn XPR36, the sheet's sensorgrams have a nm axis)
T1 construct: extracellular domain; Made in HEK-293F cells, protein A purified; also called PD-L1 antigen; PD-L1 protein
T1 sequence (Q9NZQ7 other isoform, or with tags, fused parts or gaps limits assumed): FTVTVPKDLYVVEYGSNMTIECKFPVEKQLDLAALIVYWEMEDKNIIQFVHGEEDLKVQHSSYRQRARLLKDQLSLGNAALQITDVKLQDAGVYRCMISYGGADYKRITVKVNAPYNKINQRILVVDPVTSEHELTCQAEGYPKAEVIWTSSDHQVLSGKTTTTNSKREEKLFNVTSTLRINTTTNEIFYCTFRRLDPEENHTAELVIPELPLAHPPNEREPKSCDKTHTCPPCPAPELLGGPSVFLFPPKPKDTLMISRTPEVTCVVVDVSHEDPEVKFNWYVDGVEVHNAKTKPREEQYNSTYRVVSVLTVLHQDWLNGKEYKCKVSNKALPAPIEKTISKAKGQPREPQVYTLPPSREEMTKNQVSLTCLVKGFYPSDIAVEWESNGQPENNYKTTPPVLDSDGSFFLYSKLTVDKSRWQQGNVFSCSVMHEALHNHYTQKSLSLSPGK
experimentalEndpoint: koff (s⁻¹)
Numbers only, in s⁻¹.

Below, 3 binders whose answers are already recorded.
PDL1-16E12 (LS/4A11) (antibody, V domains shown, also called PD-L1-16E12-4A11) VH: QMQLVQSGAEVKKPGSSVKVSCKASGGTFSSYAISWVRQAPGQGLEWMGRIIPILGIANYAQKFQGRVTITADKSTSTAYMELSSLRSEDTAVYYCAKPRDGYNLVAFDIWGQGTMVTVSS VL: QLVLTQPPSVSGAPGQRVIISCTGSSSNIGAGYDVHWYQQVPGTAPKLLIYGNNHRPSGVPDRFSGSKSGTSASLAITGLQAEDETDYYCQSYDNRLSGSLFGGGTKLTVL :: 1.28e-05
PDL1-16E12 (antibody, V domains shown, Only FR/CDR pieces are tied to the clone; also called parent antibody) VH: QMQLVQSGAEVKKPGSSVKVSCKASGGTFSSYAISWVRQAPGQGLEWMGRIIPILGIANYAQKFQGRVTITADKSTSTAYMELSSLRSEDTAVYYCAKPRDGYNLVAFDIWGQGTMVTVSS VL: QLVLTQPPSVSGAPGQTVTISCTGSSSNIGAGYDVHWYQQLPGTAPKLLIYGNNNRPSGVPDRFSGSKSGALASLAITGLQAEDGADYHCQSYDNSLSAHAVFGTGTKVTVL :: 1.43e-05
PDL1-16E12 (LS/4C9) (antibody, V domains shown, also called PD-L1-16E12-4C9) VH: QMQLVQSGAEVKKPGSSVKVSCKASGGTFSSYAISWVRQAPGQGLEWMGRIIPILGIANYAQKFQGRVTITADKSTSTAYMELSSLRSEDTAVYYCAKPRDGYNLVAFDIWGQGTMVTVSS VL: QLVLTQPPSVSGAPGQRVTISCTGGSSNIGAGYDVHWYQQLPGTAPKLLLFGNTNRPSGVPGRFSGSKSGSSASLAITGLQSDDEADYYCQSYDSSLGGSVIGTGTKVTVL :: 2.62e-06

Next up:
Incoming: Consider the binder PDL1-16E12 (LS/4F5) (antibody, V domains shown, also called 16E12(4F5); 16E12-4F5) VH: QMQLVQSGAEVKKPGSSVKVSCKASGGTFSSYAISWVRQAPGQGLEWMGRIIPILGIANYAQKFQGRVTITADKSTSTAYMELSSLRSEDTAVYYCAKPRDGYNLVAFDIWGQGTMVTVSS VL: QLVLTQPPSVSGAPGQRVTISCTGSSSNIGAGYDVHWYQQLPGAAPKLLIYGDINRPSGVPDRFSGSKSGISASLAITGLQAEDEADYYCQSYDSSLSGGVFGGGTKLTVL and give its measured koff.
Outgoing: 2.18e-06
